experiment: NCI Yeast Anticancer Drug Screen. Data for the mec2-1 strain (AID 157); details: S. cerevisiae mec2-1 strain, at 5.0 µM (retest, dose inferred, filed as 0.5), hits give high values
Compounds without any hit were thinned out: in the full panel of roughly 79,000, 15% have a hit. Activity calls are given as the source filed them. Cut-off read from the data, not from the text of the source: active = growth inhibition above about 70%; inactive = the rest.

COMPOUND	growth inhibition
C1=C(CN2CCCCC2)COc2ccccc21	1% (inactive)
Cc1cc2c(C(C)C)c(O)c(O)c(C=Nc3ccccc3S)c2c(O)c1-c1c(C)cc2c(C(C)C)c(O)c(O)c(C=Nc3ccccc3S)c2c1O	-12% (inactive)
O=C1OC(c2ccc(O)cc2)(c2ccc(O)cc2)c2cccc3cccc1c23	11% (inactive)
Cc1ccc(OC(=O)c2ccc(N)cc2O)cc1	83% (active)
Cc1cc(=O)[nH]c2ccc(Cc3ccc(N)cc3)cc12	9% (inactive)
Cc1c2ccccc2c(C=O)c2ccccc12	44% (inactive)
COc1cccc2c1C(=O)c1c(O)c3c(c(O)c1C2=O)C[C@@](O)(C(C)=O)C[C@@H]3OC1CC(O)C(O)C(C)O1 (stereo partly specified)	21% (inactive)
NC(C/[N+]([O-])=N/O)C(=O)O (stereo unspecified)	10% (inactive)
CCOC(=O)c1c[nH]c2cc(C(F)(F)F)ccc2c1=O	74% (active)
N#Cc1c(/N=C/c2ccccc2Cl)sc2c1CCC2	-14% (inactive)
CCOc1ccc(NC(=O)C(=O)NO)cc1	-25% (inactive)

---

The entries below are paired with their reported growth inhibition.
test: NCI Yeast Anticancer Drug Screen. Data for the mec2-1 strain (AID 157); conditions: S. cerevisiae mec2-1 strain, at 50.0 µM (retest, dose inferred, filed as 5.0), hits give high values
About 79,000 compounds went through this panel and 15% of them were active in at least one assay; those are over-represented in the sample as a whole.

MOLECULE	growth inhibition (%)
COc1ccc(NC(=O)C(=O)NO)c(OC)c1	96
Nc1ccc(Cn2ccc3c4c(N)nc(N)nc4ccc32)cc1	96
Cn1c2ccccc2c(=O)c2ccccc21	9
C=C1CCC[C@@H]2[C@@](C)(Cc3cc(O)ccc3O)C(C)CC[C@]12C (some centres not stated)	97
O=C1N(c2ccccc2)C(=O)N1c1ccccc1	-1
CCN(CC)CCNc1nc(NCCN(CC)CC)c2nc(-c3ccccc3)c(-c3ccccc3)nc2n1	98
CCCn1cnc2c(SCc3ccc(Cl)cc3)nc(N)nc21	-10
Clc1nc2nc(Cl)c(Cl)n2nc1Cl	-7
O=C1C=CC(=O)C(C2OC(=O)C(Br)=C2Br)=C1 (configuration not stated)	-17
O=C1CCC(c2ccccc2)(C2(c3ccccc3)CCC(=O)O2)O1 (configuration not stated)	4
Fc1ccc(/C=C2\COCC3=C2NC(=S)NC3c2ccc(F)cc2)cc1 (configuration not stated)	99
Cc1cc(C)[nH]c(=O)n1	11

---

experiment: NCI Yeast Anticancer Drug Screen. Data for the rad50 strain (AID 155);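 note: 0% = growth of vehicle-only cultures of the same strain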; conditions: S. cerevisiae rad50 strain growth inhibition; at 5.0 µM (retest, dose inferred, filed as 0.5); hits give high values
About 79,000 compounds went through this panel and 15% of them were active in at least one assay; those are over-represented in the sample as a whole.
The entries below are paired with their reported growth inhibition.

MOLECULE	growth inhibition [%]
N#CC1(C2SCCS2=O)C2=C(C(=O)c3ccccc3C2=O)N2CCCC21 (stereo not given)	17
c1cc2c3c(c1)c1cc4c(cc1c[n+]3CC2)OCO4	14
Cc1c2ccccc2c(C=O)c2ccccc12	40
CCN(CCO)CCNc1ccc(C)c2sc3ccccc3c(=O)c12	36
CC1OC(OC2CC(O)(C(=O)CO)Cc3c(O)c4c(c(O)c32)C(=O)c2ccccc2C4=O)CC(N)C1O (stereo not given)	87
CCOC(=O)/C(=C/c1ccc(OC)c(OC)c1)C(=O)c1ccccc1	12
COC(=O)c1ccc(O)c(OC)c1	-1
COc1ccc(C2c3cc4c(cc3OC(NNC(N)=O)C2C)OCO4)cc1 (stereo not given)	-1
Cc1cc(C)[nH]c(=O)n1	-2
CC(=O)Nc1nc([N+](=O)[O-])c(C(C)C)s1	4
NC(=O)c1cc(Br)cc(Br)c1O	14
COc1ccc(/C=C2\CCCC(CN(C)C)C2=O)cc1 (stereo not given)	-1
CC[N+](C)(C)c1ccccc1	42
CC(=O)OCC(=O)[C@H]1CC[C@H]2[C@@H]3CC=C4C[C@@H](O)CC[C@]4(C)[C@H]3CC[C@]12C	54
O=C(O)C#CC(=O)O	22
COc1cc2c(c(OC)c1OC)-c1ccc(SC)c(=O)cc1C(NC(=O)c1ccccc1)CC2 (stereo not given)	-9
CC1CC=CCC1C(=O)O (stereo not given)	8
CSc1ccc(N2C(=O)CSC2=S)cc1Cl	27
COc1ccc2nc(C)cc(NCCCCCCCCCNc3cc(C)nc4ccc(OC)cc34)c2c1	-17
NC(CC(=O)O)C(=O)O (stereo not given)	-2
O=C1c2ccccc2-n2c1nc1ccccc1c2=O	18
OCc1ccccc1C(c1ccccc1)c1ccccc1	0
CC[N](CC)[Ge]([CH2]C)[CH2]C.C[CH2][Ge]([CH2]C)[CH2]C	40
O=[N+]([O-])c1ccc(OCCN(Cc2ccccc2)Cc2ccccc2)c([N+](=O)[O-])c1	3
CSc1ncnc2c1ncn2C1OC(CO)C(O)C1O (stereo not given)	2

---

assay: NCI Yeast Anticancer Drug Screen. Data for the sgs1 mgt1 strain (AID 161);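 note: 0% = growth of cultures given vehicle only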; details: S. cerevisiae sgs1 mgt1 strain, at 5.0 µM (retest, dose inferred, filed as 0.5)
The panel holds about 79,000 compounds, 15% with a hit somewhere; the sample as a whole holds those more often. Activity calls are given as the source filed them. Cut-off read from the data, not from the text of the source: active = growth inhibition above about 70%; inactive = the rest.
Labels: 1 (yes) (active), 0 (no) (inactive)

COMPOUND	ASSIGNED CATEGORY
Cc1nc2c(Br)cc(Br)cc2c(=O)n1-c1ccccc1NC1OC(CO)C(O)C(O)C1O (configuration not stated)	0 (no)
COc1ccc(COc2ccc(C(=O)CCN3CCOCC3)cc2)cc1	0 (no)
N#CCCC(CCC#N)(CCC#N)C(=O)c1ccccc1	0 (no)
COc1ccc(C2SC(N)=Nc3c2c(C)nn3C(=O)c2ccc(Cl)cc2)cc1OC (configuration not stated)	0 (no)
CCOC(=O)C1=C(C(=O)c2ccc(C)cc2)C(c2cccc([N+](=O)[O-])c2)C(C(=O)c2ccc(C)cc2)=C(C(=O)OCC)N1	0 (no)
COC(=O)[C@]1(C)CCC[C@]2(C)c3ccc(C(C)C)cc3CC[C@@H]12	0 (no)
C/C(=N\O)c1cc(Br)cc([N+](=O)[O-])c1O	0 (no)
CC(=O)Oc1ccc2c(c1)Oc1cc(OC(C)=O)ccc1C21OC(=O)c2ccccc21	0 (no)
CC(=O)Nc1nc([N+](=O)[O-])c(C(C)C)s1	0 (no)
CC1(c2ccccc2)c2ccccc2N(c2ccccc2)C(=O)C1O (configuration not stated)	1 (yes)
c1ccc2c(c1)CNc1ccccc1-2	0 (no)
CC(=O)OC1CC2C(C)(C)C(=O)C=C[C@]2(C)C2CCC3(C)C(=CC(=O)C3c3ccoc3)[C@]12C (some centres not stated)	0 (no)
O=C(Nc1cc(-c2ccccc2)[nH]n1)c1ccccc1F	0 (no)
C1=C(c2ccccc2)N(CCc2ccccc2)C(c2ccccc2)=CN1Cc1ccccc1	0 (no)
CC(C)(C)OC(=O)NCCc1cccc2c1oc1c(CCC(=O)O)cccc12	0 (no)
CCOC(=O)C(CN)(c1ccccc1)c1ccccc1	0 (no)
Nc1nc(N)c2nc3c4ccccc4c4ccccc4c3nc2n1	0 (no)
O=C1NC(=O)c2cc([N+](=O)[O-])ccc21	0 (no)
Oc1cccc2c1-c1ccccc1C2	0 (no)
Cc1cc(/C=C/C2CCC3CC(C)CCC3N2CCO)c(C)n1-c1ccccc1 (configuration not stated)	0 (no)
COc1cccc(NC(=S)C(C#N)C(=O)Nc2cccc(C(F)(F)F)c2)c1 (configuration not stated)	0 (no)
Nc1ccc([N+](=O)[O-])c(S(=O)(=O)O)c1	0 (no)

---

assay: NCI Yeast Anticancer Drug Screen. Data for the wt2 strain (AID 169);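 note: 0% = growth of vehicle-treated yeast cultures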; conditions: S. cerevisiae wt2 strain growth inhibition; at 33.0 µM; hits give high values
About 79,000 compounds went through this panel and 15% of them were active in at least one assay; those are over-represented in the sample as a whole. Active and inactive are the calls of the source. No stated cut-off is given here; in the data, active means growth inhibition above about 70%; inactive means the rest.
VALUE KIND: growth inhibition

MOLECULE	VALUE KIND	TEST RESULT
Cc1ccc(S(=O)(=O)NC2CCCCCCC2)cc1	growth inhibition	23% (inactive)
O=Cc1cc([N+](=O)[O-])ccc1O.[Eu]	growth inhibition	36% (inactive)
COc1cccc(-c2nnc(-c3ccccc3)o2)c1	growth inhibition	46% (inactive)
CCC(C)c1ccc(O)c(C(C)CC)c1 (stereo not given)	growth inhibition	-1% (inactive)
CCO/C=C1\SC(=S)N(c2cccc(O)c2)C1=O	growth inhibition	22% (inactive)
c1ccc2nc3c(ccc4ccccc43)cc2c1	growth inhibition	94% (active)
Cc1nc2cc(Cl)ccc2n1-c1ccccc1	growth inhibition	37% (inactive)
Cc1c2ccccc2c(C=O)c2ccccc12	growth inhibition	23% (inactive)
CCCCCCCCCCCCN	growth inhibition	-5% (inactive)
COc1ccc(Cc2ccc(O)cc2)cc1	growth inhibition	6% (inactive)
Cc1c(C)c(CCl)c(C)c(C)c1CCl	growth inhibition	82% (active)
Cc1ccc(OC(=O)c2ccc(N)cc2O)cc1	growth inhibition	43% (inactive)
CCSC1=C(C)C(=O)c2ccccc2C1=O	growth inhibition	20% (inactive)
CC[N+](C)(C)c1ccccc1	growth inhibition	-16% (inactive)
OC(CF)(c1ccc(Cl)cc1)c1ccc(Cl)cc1	growth inhibition	93% (active)
